# Target desc: Tyrosine-protein kinase SYK (Homo sapiens)
pKi: −log10 of the molar value.
Measured parameter: pKi

{"Smiles code": "COc1ccncc1C1=NNC(=O)/C1=N\\Nc1ccccc1", "Measured parameter": "pKi", "Endpoint result": 5.74}
